MEASUREMENT_LABEL: melting point

Ask | Which melting point is listed for c1ccc(OCCSCc2ncc(-c3ccc(OCCCN4CCCCCC4)cc3)o2)cc1 ?
Reply | 32 to 35 °C

Ask | Now consider O=C(Nc1ccc(F)cc1F)c1nc(Cl)c(Cl)[nH]1 and answer again.
Reply | 290 °C

Ask | Then this molecule: CSCCC1OC2(CCCCC2)NC1=O (stereo not given)
Reply | 109 °C

Ask | COc1ccc(C2(C#N)CCC(=O)C(C(N)=O)C2)cc1OCC1CC1 (stereo not given) , same question.
Reply | 154 to 155 °C

Ask | Now the molecule Cc1n[nH]cc1-c1cccc2c1nnn2-c1ccnc(NC2CCC(C(=O)N3CCC(O)CC3)CC2)n1 (stereo not given)
Reply | 190 to 195 °C

###

Each record here notes measured melting point.

Ask | What does the data say about its melting point? Entry: CCOC(=O)COc1ccc2cc(Br)ccc2c1Br
Reply | 104 to 106 °C

Ask | Same read-out for Cc1cc(C)c(C(C)(C)O)c(C)c1 ?
Reply | 106 to 107 °C

Ask | Now give it for CC(C)C[C@H](NC(=O)COc1ccc(Cl)cc1)C(=O)N[C@@H](C(C)C)[C@@H](O)c1c(-c2ccccc2)c1=O too.
Reply | 88 to 90 °C

Ask | Here is the next molecule: CON1C=C2N=NC3=C(N2C1)N(c1ccccc1)CC(C)=C3
Reply | 214 to 217 °C

Ask | Moving on to the next molecule: N=c1nc(Cl)cc(N)n1O
Reply | 193 °C

Ask | What do we get for COc1ccc2c(c1)c(C)c(-c1ccc(O)cc1)n2Cc1ccc(OCCN2CCCCC2)cc1 ?
Reply | 87 to 90 °C

###

Reported melting point is given for each of the following compounds.

# annotated cases, reported melting point shown
[
  {
    "COMPOUND": "Fc1cccc2cc3cccc(F)c3nc12",
    "RESULT": "193 to 195 °C"
  },
  {
    "COMPOUND": "CC(=O)NCc1cccc(C#N)c1",
    "RESULT": "94 to 96 °C"
  },
  {
    "COMPOUND": "CC(OC(=O)ON=C(C#N)c1ccccc1)C1CC1 (stereo unspecified)",
    "RESULT": "65 to 67 °C"
  },
  {
    "COMPOUND": "COC(=O)CCCCCCCCCCCCCCCO",
    "RESULT": "54.2 °C"
  },
  {
    "COMPOUND": "N#Cc1ccc2oc(CCCCCc3cc4cc(C#N)ccc4o3)cc2c1",
    "RESULT": "133 to 134 °C"
  }
]

Next compound, melting point to be filled in.
Ask | Tell me the measured melting point of COc1ccc(C(=O)c2ccccc2)c(O)c1Cc1cc(C)cc(-n2nc3ccccc3n2)c1O , please.
Reply | 206 to 209 °C

###

# melting point per entry

Sample records with melting point:
[
  {
    "COMPOUND": "c1ccc(C(CCOc2ccc(-c3nnn[nH]3)cc2)(c2ccccc2)c2ccccc2)cc1",
    "RESULT": "232 to 233 °C"
  },
  {
    "COMPOUND": "Cc1ccc(-n2nccn2)c(C(=O)O)c1",
    "RESULT": "168 °C"
  },
  {
    "COMPOUND": "O=C(c1ccc(C(F)(F)F)cc1)N1CCC(Cc2ccc(C3=NCCO3)cc2)CC1",
    "RESULT": "115 °C"
  },
  {
    "COMPOUND": "CCCCc1oc2ccccc2c1C(=O)NCc1ccc2c(-c3ccc(C(C)(C)C)cc3)c(OCC#N)ccc2c1",
    "RESULT": "162 to 164 °C"
  },
  {
    "COMPOUND": "CCOC(=O)c1cc(C)n(-c2cccc(C)c2)c1-c1ccccc1",
    "RESULT": "92.5 to 94 °C"
  }
]

Ask | Param item = CN(c1cccc2cc(C(=O)NCC(C)(C=O)SCc3ccccc3)[nH]c12)S(=O)(=O)c1cccs1 (stereo not given) ; retrieve measured melting point.
Reply | 149 to 150 °C

Ask | Quick one: O=C(c1ccc(Oc2cccc3ccccc23)cc1)C(O)O
Reply | 93 to 96 °C

Ask | Then this compound: CC(C)(C)C1CC(=O)CC(C(C)(C)C)N1 (stereo not given)
Reply | 55.4 °C
